Target System: human mAChR M4 (Homo sapiens)
Construct: expressed in transfected cells; host or cells: CHO-K1 (ATCC), stably co-expressing chimeric G protein Gqi5
Test Summary: mAChR M4 cell-based functional assay (calcium mobilization, EC80 acetylcholine), human M4
Test Context: Table 10
Method: Human or rat M4 cDNA, along with the chimeric G protein Gqi5, were transfected into Chinese hamster ovary (CHO-K1) cells purchased from the American Type Culture Collection using Lipofectamine2000. […] Calcium flux was measured using the Functional Drug Screening System (FDSS) 6000 or 7000 (Hamamatsu Corporation, Tokyo, Japan) as an increase in the fluorescent static ratio. […] Agonist activity was analyzed as a concentration-dependent increase in calcium mobilization upon compound addition. […]
Observed Property: Human M4 Emin (%)

- Molecule: "COc1ccc(-c2ccc(N[C@H]3C[C@@H]4CN(CC5CCOCC5)C[C@@H]4C3)nn2)cc1 [Compound 201]"
  Target System: "human mAChR M4 (Homo sapiens)"
  Human M4 Emin (%): 7
- Molecule: "CC(C)(C)CCN1C[C@H]2C[C@H](Oc3ccc(Cl)nn3)C[C@H]2C1 [Compound 128]"
  Target System: "human mAChR M4 (Homo sapiens)"
  Human M4 Emin (%): 5
- Molecule: "FC1(F)CCN(c2ccc(N[C@H]3C[C@@H]4CN(CC5CCOCC5)C[C@@H]4C3)nn2)CC1 [Compound 190]"
  Target System: "human mAChR M4 (Homo sapiens)"
  Human M4 Emin (%): 4
- Molecule: "COc1ccccc1-c1ccc(N[C@H]2C[C@@H]3CN(CC4CCOCC4)C[C@@H]3C2)nn1 [Compound 199]"
  Target System: "human mAChR M4 (Homo sapiens)"
  Human M4 Emin (%): 5

###

Target System: human mAChR M4 (Homo sapiens)
Construct: expressed in transfected cells; host or cells: CHO-K1 (ATCC), stably co-expressing chimeric G protein Gqi5
Sequence (P08173 1-479): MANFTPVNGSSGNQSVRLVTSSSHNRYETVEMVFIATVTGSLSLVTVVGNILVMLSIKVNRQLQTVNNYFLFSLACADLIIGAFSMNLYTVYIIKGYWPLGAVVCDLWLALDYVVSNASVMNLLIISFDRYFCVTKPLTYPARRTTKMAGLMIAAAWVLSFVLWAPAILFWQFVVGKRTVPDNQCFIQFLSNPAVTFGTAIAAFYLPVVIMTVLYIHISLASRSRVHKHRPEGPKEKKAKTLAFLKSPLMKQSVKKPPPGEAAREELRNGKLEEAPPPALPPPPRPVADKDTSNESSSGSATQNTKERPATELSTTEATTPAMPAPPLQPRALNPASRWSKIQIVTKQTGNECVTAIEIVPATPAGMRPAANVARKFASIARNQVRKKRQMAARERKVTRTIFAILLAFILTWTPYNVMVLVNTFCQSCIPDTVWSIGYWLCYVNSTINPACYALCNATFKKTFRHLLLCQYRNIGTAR
Test Summary: mAChR M4 cell-based functional assay (calcium mobilization, EC80 acetylcholine), human M4
Test Context: Table 10; M4/Gqi5/CHO-K1 cells, decrease of EC80 acetylcholine response
pIC50: −log10 of the molar value.
Observed Property: pIC50

Previously resolved entries follow.
- Mol: "Cc1cnn(C)c1-c1ccc(OC[C@@H]2C[C@@H]3CN(CCC(C)(C)C)C[C@@H]3C2)nn1"
  pIC50: 7.37
- Mol: "CC(C)(C)CCN1C[C@H]2C[C@H](Oc3ccc(Cl)nn3)C[C@H]2C1"
  pIC50: 5.96

a. c1cc(-c2ccc(N[C@H]3C[C@@H]4CN(CC5CCOCC5)C[C@@H]4C3)nn2)ccn1
b. Fc1ccc(Cl)c(-c2ccc(N[C@H]3C[C@@H]4CN(Cc5cnccn5)C[C@@H]4C3)nn2)c1
c. CC(C)(C)CCN1C[C@H]2C[C@H](Oc3ccc(-c4cc(F)ccc4Cl)nn3)C[C@H]2C1
Task: Please list these in order of increasing pIC50. Thank you! Rank them, then answer with their labels in that order.
Output: b, c, a

Entry source: patent US12577234B2
